The measured values listed here are drawn from patent US20250250357A1.

Reported values of OD450 for individual entries
# TESTED TARGET: T1, human MSLN-hFc protein (Acro, Cat. No. MSN-H5253) (human, UniProt Q13421 296-580)
# T1 construct: the method names the coated protein as human MSLN-hFc (Acro); also called human MSLN full-length protein
# T1 sequence (Q13421 other isoform, or with tags, fused parts or gaps limits assumed): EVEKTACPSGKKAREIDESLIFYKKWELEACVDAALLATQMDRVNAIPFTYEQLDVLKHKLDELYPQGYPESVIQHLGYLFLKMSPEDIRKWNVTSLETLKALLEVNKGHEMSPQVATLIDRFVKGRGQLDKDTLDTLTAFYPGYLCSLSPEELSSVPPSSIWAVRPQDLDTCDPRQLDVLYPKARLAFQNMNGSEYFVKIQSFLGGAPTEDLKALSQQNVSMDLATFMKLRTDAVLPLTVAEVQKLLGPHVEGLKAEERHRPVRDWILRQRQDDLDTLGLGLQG
# RUN DESCRIPTION: ELISA on coated antigen, antibody 0.001 nM
Answer in OD450, number only, no unit symbol.

Consider the worked cases shown below.
>  <BINDER>
F7.44.20-H6 (scFv, not shown: small tags and cut ends, also called S009-F7.44.20 humanized antibody VH1a + VL2) scFv: EVQLVQSGAEVKKPGASVKVSCKASGYTFTDYNMDWVRQAPGQGLEWMGDINPSTGGTIYNQKFQGRVTMTEDKSTSTVYMELSSLRSEDTAVYYCARRRIGTGYFDVWGQGTTVTVSSGGGGSGGGGSGGGGSEIVLTQSPDFQSVTPKEKVTITCSASSSVISSYLSWYQQKPDQSPKLLIYRTSNLASGVPSRFSGSGSGTDYTLTINSLEAEDAATYYCHQWSSFPYTFGGGTKVEIK

>  <READOUT LABEL>
OD450

>  <TEST VALUE>
0.05

$$$$
>  <BINDER>
F7.44.20-H15 (scFv, not shown: small tags and cut ends, also called S009-F7.44.20 humanized antibody VH2a + VL3) scFv: EVQLVQSGAEVKKPGASVKVSCKASGYTFTDYNMDWVRQAPGQGLEWMGDINPSTGGTIYNQKFSGRVTMTEDKSASTVYMELSSLRSEDTAVYYCARRRIGTGYFDVWGQGTTVTVSSGGGGSGGGGSGGGGSEIVLTQSPATLSLSPGERATLSCSASSSVISSYLSWYQQKPGQSPRLLIYRTSNLASGIPARFSGSGSGTDYTLTISSLEPEDFAVYYCHQWSSFPYTFGGGTKVEIK

>  <READOUT LABEL>
OD450

>  <TEST VALUE>
0.05

$$$$

# OD450 of F7.44.20-H10 (scFv, not shown: small tags and cut ends, also called S009-F7.44.20 humanized antibody VH2 + VL2) scFv: EVQLVQSGAEVKKPGASVKVSCKASGYTFTDYNMDWVRQAPGQGLEWMGDINPSTGGTIYNQKFNGRVTMTEDKSASTVYMELSSLRSEDTAVYYCARRRIGTGYFDVWGQGTTVTVSSGGGGSGGGGSGGGGSEIVLTQSPDFQSVTPKEKVTITCSASSSVISSYLSWYQQKPDQSPKLLIYRTSNLASGVPSRFSGSGSGTDYTLTINSLEAEDAATYYCHQWSSFPYTFGGGTKVEIK = 0.04

Short answer for F7.44.20-H1 (scFv, not shown: small tags and cut ends, also called S009-F7.44.20 humanized antibody VH1 + VL1) scFv: EVQLVQSGAEVKKPGASVKVSCKASGYTFTDYNMDWVRQAPGQGLEWMGDINPSTGGTIYNQKFNGRVTMTEDKSTSTVYMELSSLRSEDTAVYYCARRRIGTGYFDVWGQGTTVTVSSGGGGSGGGGSGGGGSEIVLTQSPDFQSVTPKEKVTITCSASSSVISSYLSWYQQKPDQSPKLLIYRTSNLASGVPSRFSGSGSGTDFTLTINSLEAEDAATYYCHQWSSFPYTFGGGTKVEIK : OD450 was 0.05

Summary for this binder, F7.44.20-H2 (scFv, not shown: small tags and cut ends, also called S009-F7.44.20 humanized antibody VH1 + VL2) scFv: EVQLVQSGAEVKKPGASVKVSCKASGYTFTDYNMDWVRQAPGQGLEWMGDINPSTGGTIYNQKFNGRVTMTEDKSTSTVYMELSSLRSEDTAVYYCARRRIGTGYFDVWGQGTTVTVSSGGGGSGGGGSGGGGSEIVLTQSPDFQSVTPKEKVTITCSASSSVISSYLSWYQQKPDQSPKLLIYRTSNLASGVPSRFSGSGSGTDYTLTINSLEAEDAATYYCHQWSSFPYTFGGGTKVEIK : OD450 is 0.04
